settings: in DMF, 318.15 K
readoutName: solubility (mole fraction)
Note: the reply should be a number with no unit written.

Exercise: Query (compound): `CC(=O)OC(OC(C)=O)c1ccc([N+](=O)[O-])o1` ; field requested: solubility (mole fraction)
Solution: 0.319

###

conditions: in acetone, 308.15 K
readoutName: solubility (mole fraction)

Exercise: Using the record for `CC(=O)OC(OC(C)=O)c1ccc([N+](=O)[O-])o1` , report its solubility (mole fraction).
Solution: 0.249

###

settings: in n-propanol, 313.15 K
readoutName: solubility (mole fraction)

Exercise: Given the compound `CC(=O)OC(OC(C)=O)c1ccc([N+](=O)[O-])o1` , what is its reported solubility (mole fraction)?
Solution: 0.0843
